Target: Human STAT6 (truncated, aa122-658, with N-terminal His-tag) (Homo sapiens)
Construct: Human STAT6 (truncated, aa122-658, with N-terminal His-tag, expressed in insect cells); His-tag (N)
Sequence (P42226 122-658): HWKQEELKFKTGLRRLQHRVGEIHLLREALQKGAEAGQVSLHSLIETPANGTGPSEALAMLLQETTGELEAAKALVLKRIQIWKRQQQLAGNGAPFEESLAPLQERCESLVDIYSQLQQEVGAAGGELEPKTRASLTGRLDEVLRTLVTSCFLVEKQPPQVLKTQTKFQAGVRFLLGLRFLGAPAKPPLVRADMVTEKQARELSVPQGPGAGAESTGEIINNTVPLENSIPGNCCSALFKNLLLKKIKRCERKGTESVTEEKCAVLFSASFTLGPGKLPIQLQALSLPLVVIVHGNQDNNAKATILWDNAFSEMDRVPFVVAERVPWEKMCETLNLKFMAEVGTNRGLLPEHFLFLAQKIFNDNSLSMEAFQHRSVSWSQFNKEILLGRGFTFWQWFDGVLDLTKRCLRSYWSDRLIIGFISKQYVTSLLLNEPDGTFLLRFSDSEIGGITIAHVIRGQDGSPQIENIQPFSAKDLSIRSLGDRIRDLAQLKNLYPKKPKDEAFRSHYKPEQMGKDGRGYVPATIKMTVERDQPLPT
Assay: Surface plasmon resonance (SPR) assay, binding to human STAT6
Details: Biacore 8K, 25° C, immobilized human STAT6 on CM5 chip, multi-cycle kinetics; geometric mean
pKd: −log10 of the molar value.
Quantity: pKd

Compound: Cc1c(N)ccn(-c2ccnc3c2cc(CN2CCC(c4ccc(C(=O)N(C)C)cc4)CC2)n3C)c1=O
Target or system: Human STAT6 (truncated, aa122-658, with N-terminal His-tag) (Homo sapiens)
pKd: 7.68

Compound: [2H]C([2H])([2H])N(C(=O)c1ccc(C2CCN(Cc3cc4c(-n5ccc(NC)cc5=O)ccnc4n3C)CC2)cc1)C([2H])([2H])[2H]
Target or system: Human STAT6 (truncated, aa122-658, with N-terminal His-tag) (Homo sapiens)
pKd: 7.68

Compound: CNc1ccn(-c2ccnc3c2cc(CN2CCN(c4ccc(C(=O)N(C)C)cc4C)C[C@@H]2C)n3C)c(=O)c1
Target or system: Human STAT6 (truncated, aa122-658, with N-terminal His-tag) (Homo sapiens)
pKd: 7.72

[A] CN(C)C(=O)c1ccc(C2CCN(Cc3cc4c(-n5ccc(NCc6ccc(Cl)cc6)cc5=O)ccnc4n3C)CC2)cc1
[B] CN(C)C(=O)c1ccc(C2CCN(Cc3cc4c(-n5c(F)c(Cl)c(N)c(Cl)c5=O)ccnc4n3C)CC2)cc1
[C] CNc1ccn(-c2ccnc3c2cc(CN2CCN(c4ccc(C(=O)N(C)C)cc4C)CC2)n3C)c(=O)c1
Query: Parameters: sort_field (pKd), sort_dir (desc). Please respond by ranking the labels in the order requested.
Response: C, A, B
(C: 7.78, A: 7.31, B: 5.18)
